assay.system: DPP-4 (Homo sapiens, UniProt P27487)
Construct: purchased Cayman Chemicals, Ann Arbor, MI, USA
Sequence (P27487 whole entry): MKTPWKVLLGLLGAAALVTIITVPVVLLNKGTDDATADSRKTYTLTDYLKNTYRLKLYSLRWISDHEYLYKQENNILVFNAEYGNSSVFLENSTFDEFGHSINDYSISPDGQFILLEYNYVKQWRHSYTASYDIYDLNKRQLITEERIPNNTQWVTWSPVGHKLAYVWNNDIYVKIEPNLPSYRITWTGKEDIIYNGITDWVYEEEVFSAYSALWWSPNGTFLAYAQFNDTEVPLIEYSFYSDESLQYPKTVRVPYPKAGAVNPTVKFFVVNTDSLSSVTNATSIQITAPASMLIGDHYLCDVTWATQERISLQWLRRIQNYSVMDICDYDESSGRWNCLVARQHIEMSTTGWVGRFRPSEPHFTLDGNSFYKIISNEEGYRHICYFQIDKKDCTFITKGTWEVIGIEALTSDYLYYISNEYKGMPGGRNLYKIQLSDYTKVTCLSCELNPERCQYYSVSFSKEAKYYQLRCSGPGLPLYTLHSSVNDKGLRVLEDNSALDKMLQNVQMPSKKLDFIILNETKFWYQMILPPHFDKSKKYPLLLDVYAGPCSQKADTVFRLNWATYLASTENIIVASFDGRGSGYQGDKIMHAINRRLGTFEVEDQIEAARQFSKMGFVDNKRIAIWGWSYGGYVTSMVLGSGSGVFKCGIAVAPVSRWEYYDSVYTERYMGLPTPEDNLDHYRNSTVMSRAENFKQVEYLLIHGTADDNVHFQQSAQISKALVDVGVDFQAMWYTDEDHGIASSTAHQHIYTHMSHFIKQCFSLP
procedure.summary: DPP-4 Inhibitor Screening Assay (fluorescence-based, Gly-Pro-AMC substrate)
Assay type: biochemical
experimental.parameters: compound at 100 µM; mean ± SD, triplicate
Description: This assay kit allows DPP-4 measurement using Gly-Pro-Aminomethylcoumarin (AMC) as a fluorogenic substrate. The free AMC group is released through the cleavage of the peptide bond by DPP leading to fluorescence that can be examined using appropriate excitation and emission wavelengths. Briefly, the experiment was performed triplicate in a white flat bottom 96 well plate. […] The fluorescence of the background wells was subtracted from all other wells before the calculations. […]
quantity: inhibition at 100 µM (%)

I. CS(=O)(=O)c1ccc(/C=N/NC(=S)Nc2ccc(-n3cccn3)cc2)cc1
II. CC(C)(C)c1ccc(/C=N/NC(=S)Nc2ccc(-n3cccn3)cc2)cc1
Prompt: For I and II , which recorded inhibition at 100 µM is lower? Answer = label.
Response: II
(II: 28.6%, I: 59.8%)

Just for reference, paper PMC7662656 is where these values come from.
